Biological target: T1, IL-18 receptors on HEK-Blue IL-18 reporter cells (UniProt Q13478 19-541; O95256 20-599, limits assumed)
T1 sequence (looked up) 1: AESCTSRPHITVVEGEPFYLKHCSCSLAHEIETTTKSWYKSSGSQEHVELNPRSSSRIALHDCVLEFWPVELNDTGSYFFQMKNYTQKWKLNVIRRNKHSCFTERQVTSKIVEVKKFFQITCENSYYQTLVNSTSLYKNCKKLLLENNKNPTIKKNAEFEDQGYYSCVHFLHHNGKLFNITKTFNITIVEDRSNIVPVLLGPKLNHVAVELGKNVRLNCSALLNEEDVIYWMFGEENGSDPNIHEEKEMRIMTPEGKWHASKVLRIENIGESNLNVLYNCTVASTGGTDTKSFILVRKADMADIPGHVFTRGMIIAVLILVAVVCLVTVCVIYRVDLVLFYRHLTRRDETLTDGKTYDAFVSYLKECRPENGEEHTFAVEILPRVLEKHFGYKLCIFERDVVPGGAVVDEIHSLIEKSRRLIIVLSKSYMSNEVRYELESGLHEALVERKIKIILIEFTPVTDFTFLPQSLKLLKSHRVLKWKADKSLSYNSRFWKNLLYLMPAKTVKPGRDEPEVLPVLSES
T1 sequence (looked up) 2: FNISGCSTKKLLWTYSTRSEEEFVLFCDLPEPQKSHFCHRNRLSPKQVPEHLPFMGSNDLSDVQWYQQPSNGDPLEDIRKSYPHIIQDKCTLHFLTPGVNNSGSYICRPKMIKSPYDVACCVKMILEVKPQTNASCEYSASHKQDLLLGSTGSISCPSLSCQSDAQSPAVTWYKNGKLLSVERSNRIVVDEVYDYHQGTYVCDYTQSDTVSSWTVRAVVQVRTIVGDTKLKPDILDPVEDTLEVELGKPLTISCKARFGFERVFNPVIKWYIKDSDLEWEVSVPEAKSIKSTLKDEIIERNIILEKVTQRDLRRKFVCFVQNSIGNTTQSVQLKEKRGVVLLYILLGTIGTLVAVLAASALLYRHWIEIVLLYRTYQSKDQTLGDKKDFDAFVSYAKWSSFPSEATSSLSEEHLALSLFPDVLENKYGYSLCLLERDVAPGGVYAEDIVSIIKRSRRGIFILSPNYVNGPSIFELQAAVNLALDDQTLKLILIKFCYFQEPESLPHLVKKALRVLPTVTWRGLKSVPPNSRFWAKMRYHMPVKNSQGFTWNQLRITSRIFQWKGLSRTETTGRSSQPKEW
Test: cell-based or functional assay
The following binders are listed with their measured HEK-Blue activity, No BP, DF-10000 values.
assay.endpoint: HEK-Blue activity, No BP, DF-10000

binder	observed.result
IL-18 variant S36E, D37E, D40R, N41G, K53Y, S55F (ligand) YFGKLESKLSVIRNLNDQVLFIDQGNRPLFEDMTDEEMRRGAPRTIFIISMYYDFQPRGMAVTISVKSEKISTLSSENKIISFKEMNPPDNIKDTKSDIIFFQRSVPGHDNKMQFESSSYEGYFLASEKERDLFKLILKKEDELGDRSIMFTVQNED	0.2
IL-18 variant K53Y, S55Y, Q56H (ligand) YFGKLESKLSVIRNLNDQVLFIDQGNRPLFEDMTDSDMRDNAPRTIFIISMYYDYHPRGMAVTISVKSEKISTLSSENKIISFKEMNPPDNIKDTKSDIIFFQRSVPGHDNKMQFESSSYEGYFLASEKERDLFKLILKKEDELGDRSIMFTVQNED	0.16
IL-18 variant K53Y, S55G, Q56H (ligand) YFGKLESKLSVIRNLNDQVLFIDQGNRPLFEDMTDSDMRDNAPRTIFIISMYYDGHPRGMAVTISVKSEKISTLSSENKIISFKEMNPPDNIKDTKSDIIFFQRSVPGHDNKMQFESSSYEGYFLASEKERDLFKLILKKEDELGDRSIMFTVQNED	0.26

Values compiled from patent US20240182536A1.
